Values compiled from patent US20150352108A1.

# assayTarget: IKKε (Homo sapiens)
# Construct: His-tag; made in house; host or cells: Sf9 insect cells
# Sequence (Q14164 whole entry): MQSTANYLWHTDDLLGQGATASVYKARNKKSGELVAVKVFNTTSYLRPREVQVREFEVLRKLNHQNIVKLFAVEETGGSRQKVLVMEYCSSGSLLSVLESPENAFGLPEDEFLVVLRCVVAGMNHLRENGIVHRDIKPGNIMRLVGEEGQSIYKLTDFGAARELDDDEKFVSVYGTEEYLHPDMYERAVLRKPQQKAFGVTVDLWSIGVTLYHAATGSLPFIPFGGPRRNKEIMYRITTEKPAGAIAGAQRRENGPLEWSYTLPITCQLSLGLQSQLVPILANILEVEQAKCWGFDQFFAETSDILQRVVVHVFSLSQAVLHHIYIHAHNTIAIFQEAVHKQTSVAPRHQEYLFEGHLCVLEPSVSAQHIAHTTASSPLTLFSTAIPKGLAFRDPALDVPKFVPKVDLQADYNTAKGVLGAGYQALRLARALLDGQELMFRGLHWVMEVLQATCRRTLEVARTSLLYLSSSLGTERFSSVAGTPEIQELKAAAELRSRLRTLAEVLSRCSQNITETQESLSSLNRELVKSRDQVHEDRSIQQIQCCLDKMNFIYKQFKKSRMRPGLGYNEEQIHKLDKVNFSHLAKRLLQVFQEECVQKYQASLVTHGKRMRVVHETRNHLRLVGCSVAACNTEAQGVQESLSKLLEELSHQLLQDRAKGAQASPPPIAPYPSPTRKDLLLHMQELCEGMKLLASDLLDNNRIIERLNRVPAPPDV
# experimentalProtocol: In-vitro IKKε kinase assay ([γ33]ATP filter-plate)
# Assay type: biochemical
# measurementSetup: text bins; read-out: IC50 for inhibition of the kinase activity of IKKε
quantity: IC50

// compound N#Cc1cc(-c2ccnc(Nc3ccc(N4CCOCC4)c(C4CC4)c3)n2)ccc1OC1CCOCC1 , assay IKKε (Homo sapiens), IC50 value: < 5 nM

IKKε (Homo sapiens) assay, compound N#Cc1cc(-c2ccnc(Nc3ccc(N4CCOCC4)cc3)n2)ccc1OCC1CNC1 , recorded IC50 = 5 to 50 nM

Bench note, IKKε (Homo sapiens): entry COc1cc(Nc2nccc(-c3ccc(OC4CCOCC4)c(C#N)c3)n2)ccc1OCCN , its IC50 = < 5 nM
